B1: glmS ribozyme (parent)
chain: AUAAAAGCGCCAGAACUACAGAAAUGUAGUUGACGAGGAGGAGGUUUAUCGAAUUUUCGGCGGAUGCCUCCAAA

# Variants of: B1
# MEASUREMENT DESCRIPTION: KM; higher = weaker cofactor use; RNA array
# REPORTED CONDITIONS: with glucosamine-6-phosphate
Values of KM greater than or equal to 3000 µM map to Criterion met; values below map to Criterion not met.

A15G U45G ... Criterion not met

Hi, just wondering whether G13C G66U shows KM of 3000 µM or higher. Criterion not met

Is KM at least 3000 µM? Consider G43U A53C Criterion met

Please indicate if the recorded KM for U46C U56G meets or exceeds 3000 µM. Criterion not met

KM >= 3000 µM for G29U U47A ? Criterion not met

Is the recorded value of KM equal to or greater than 3000 µM for this variant? G32U C71U Criterion met

Cited source: the supplement of paper PMC7125110
